All values here come from the supplement of paper PMC12338614.

B1: library; numbered along this chain (parent)
chain: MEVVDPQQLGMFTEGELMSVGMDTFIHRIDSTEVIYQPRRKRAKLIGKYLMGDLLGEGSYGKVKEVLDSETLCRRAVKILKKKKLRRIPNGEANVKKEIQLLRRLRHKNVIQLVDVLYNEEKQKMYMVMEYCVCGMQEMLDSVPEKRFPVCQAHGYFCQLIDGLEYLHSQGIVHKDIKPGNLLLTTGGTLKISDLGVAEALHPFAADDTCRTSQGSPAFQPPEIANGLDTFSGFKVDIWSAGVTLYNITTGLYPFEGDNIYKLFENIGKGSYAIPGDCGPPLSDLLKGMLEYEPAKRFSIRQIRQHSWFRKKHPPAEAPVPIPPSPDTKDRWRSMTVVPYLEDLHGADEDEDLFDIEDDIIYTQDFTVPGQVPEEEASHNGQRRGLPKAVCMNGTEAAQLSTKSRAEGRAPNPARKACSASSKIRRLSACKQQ

Variants of: B1
Experiment: STK11 functional score (HeLa growth suppression), rescaled enrichment; synonymous median = 1, nonsense median = 0 (normalised score)
Conditions: with HeLa; variant type: missense
Kindly supply the reported STK11 functional score values for the records listed here.
Would you mind answering with just the numeric figure?

Query string: Recorded STK11 functional score of `K62G` , please.
Result string: 1.23

Query string: Recorded STK11 functional score of `H27L` , please.
Result string: 1.35

Query string: Recorded STK11 functional score of `S325H` , please.
Result string: 1.54

Query string: Recorded STK11 functional score of `F366E` , please.
Result string: 1.6

Query string: Recorded STK11 functional score of `R104T` , please.
Result string: 1.3

Query string: Recorded STK11 functional score of `R333G` , please.
Result string: 1.47

Query string: Recorded STK11 functional score of `F219Q` , please.
Result string: 1.57

Query string: Recorded STK11 functional score of `T363P` , please.
Result string: 1.34

Query string: Recorded STK11 functional score of `M127A` , please.
Result string: 1.5

Query string: Recorded STK11 functional score of `M139T` , please.
Result string: 1.18

Query string: Recorded STK11 functional score of `Q305T` , please.
Result string: 1.5

Query string: Recorded STK11 functional score of `D348T` , please.
Result string: 1.57

Query string: Recorded STK11 functional score of `N90K` , please.
Result string: -0.0122

Query string: Recorded STK11 functional score of `N380A` , please.
Result string: 1.51

Query string: Recorded STK11 functional score of `A153I` , please.
Result string: 0.28

Query string: Recorded STK11 functional score of `T186W` , please.
Result string: 0.861

Query string: Recorded STK11 functional score of `G346A` , please.
Result string: 1.57

Query string: Recorded STK11 functional score of `N247Y` , please.
Result string: 1.32

Query string: Recorded STK11 functional score of `L184V` , please.
Result string: 1.01

Query string: Recorded STK11 functional score of `G52V` , please.
Result string: 1.1

Query string: Recorded STK11 functional score of `P319G` , please.
Result string: 1.53

Query string: Recorded STK11 functional score of `D258E` , please.
Result string: 0.739
